biological target: RSV F protein of recombinant mKate-RSV, subtype B (18537) (Respiratory syncytial virus subtype B …, UniProt P13843 26-574); assay: cell-based or functional assay
observable: Neut IC50 subtype B (µg/mL)
The reply should contain only the number, in µg/mL.

Below, each entry is followed by its recorded Neut IC50 subtype B result.
binder="ADI-14463 (antibody, V domains shown) VH: QVQLVQSGTEVKKPGASVKVSCKASGYIFDHFAITWVRQAPGQGPEWMGWISAYNGRTEDSGKFPGRLTLTTDPATRTAFLELRGLTPDDTAVYYCARDVPVMGAAFLDYWGQGTLVTVSS VL: EIVLTQSPLSLPVTVGQPASISCRSGQSLEFSDGNTYLTWFHQRPGQSPRRLIYRGSYRDSGVPDRFRGSGSGTTFTLTISRVEAEDVGIYFCMQGTHWPPTFGQGTKVDIK" value_units=µg/mL test_result=0.036
binder="ADI-14511 (antibody, V domains shown, full-length IgG (yeast-expressed); also called Antibody Number 72; Ab# 72) VH: EVQLLESGAEVKKPGSSVKVSCKVAGGTFSDYAISWVRQAPGQGLEYLGGIIPAFKRAMYPRKFQDRVTITADESTSTAYMELRGLRSEDTALYYCARPAGDFGDLKWLRSPFDYWGQGTLVTVSS VL: DIVLTQSPATLSVSPGERATLSCRASEGVGINLAWYQQKPGQAPRLLIYGASTRATDIPARFSGSGSGTDFTLTISSLQSEDFAVYYCQQYNDWPPQLTFGPGTKVDIK" value_units=µg/mL test_result=7.04
binder="ADI-14445 (antibody, V domains shown, full-length IgG (yeast-expressed); also called Antibody Number 8; Ab# 8) VH: EVQLLESGAVMKRPGSSVRVSCRASGVTLTTVSVNWVRQVPGQGPEWIGGILIGFGKVRQAQKFENRVTLTADASRNTAYMELSGLTSDDTAVYYCAIIDPQDCTRASCFWVNWLDPWGQGTLVTVSS VL: DIRMTQSPGTLTLSPGERATLSCRASQSILSGNLAWYQQKPGQAPRLLISAASTRATDIPDRFSGSGSGTDFTLTITRLEPQDFAVYYCQQYDSAPITFGQGTRLEIK" value_units=µg/mL test_result=1.21

Proceeding to the next binder to report its Neut IC50 subtype B.
Qu. So what's the measured Neut IC50 subtype B for this one? ADI-14450 (antibody, V domains shown, full-length IgG (yeast-expressed); also called Antibody Number 13; Ab# 13) VH: QVQLVQSGGGLVKPGGSRRLACAASGFIFRNAWMSWVRQAPGKGLEWVGRIKRTSEGGSVDYATPVQGRFSISRDDSRNTLYLQMHSLAPDDTAVYYCSTGPPYSYFDSTGYSVVDYWGQGTLVTVSS VL: QSVLTQPPSASGTPGQRVTISCSASSSNIGDNYFYWYQQLPGKAPTLLMYGSDQRSSGVPDRFSGSQSGTSASLAISGLRSEDEAAYYCAAWDDSLSGPVFGGGTQLTVL
Ans. 0.315
